Measured IC50 of individual entries
biological target: CDK6 (Homo sapiens (Human), UniProt Q00534); test: Phospho-Serine 795 Rb ELISA assay in MV4-11 cells; conditions: overnight treatment, phospho-Rb S795, read-out: CDK6 pRB S795 ELISA MV4-11 cells IC50
Sequence (Q00534 whole entry): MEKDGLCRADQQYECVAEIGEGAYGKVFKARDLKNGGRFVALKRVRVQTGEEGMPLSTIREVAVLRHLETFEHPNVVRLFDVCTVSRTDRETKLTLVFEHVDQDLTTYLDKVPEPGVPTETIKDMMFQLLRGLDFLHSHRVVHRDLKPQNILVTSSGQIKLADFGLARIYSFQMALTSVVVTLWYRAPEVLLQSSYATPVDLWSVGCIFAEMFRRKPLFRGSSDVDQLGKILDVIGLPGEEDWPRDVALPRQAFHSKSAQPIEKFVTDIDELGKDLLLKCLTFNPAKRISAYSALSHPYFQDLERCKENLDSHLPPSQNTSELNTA
Sequence (P30281 whole entry partner): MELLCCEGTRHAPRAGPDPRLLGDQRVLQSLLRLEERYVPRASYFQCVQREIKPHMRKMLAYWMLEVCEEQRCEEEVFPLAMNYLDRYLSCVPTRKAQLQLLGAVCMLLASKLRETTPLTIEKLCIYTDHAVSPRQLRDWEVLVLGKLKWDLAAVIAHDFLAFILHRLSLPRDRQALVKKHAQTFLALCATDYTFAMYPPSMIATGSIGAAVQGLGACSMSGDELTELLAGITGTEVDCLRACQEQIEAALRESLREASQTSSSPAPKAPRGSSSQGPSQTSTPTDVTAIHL
Numeric answer only, unit nM assumed.

Observe how each entry below is paired with its result.
In [3]: df
Out[3]:
                            smiles_notation                             target_system  experimental_readout  test_value
0  CC(C)(C)n1cnc2c(F)cc(-c3cc(N[C@@H]4CCN(C(=O)C(F)(F)CN)C[C@H]4O)ncc3Cl)cc21  CDK6 (Homo sapiens (Human), UniProt Q00534)                  IC50         628
1  CC1(C)OCCn2nc3c(F)cc(-c4nc(N[C@@H]5CCOC[C@H]5O)ncc4F)cc3c21  CDK6 (Homo sapiens (Human), UniProt Q00534)                  IC50         217
2  CC(C)n1c(CNC2COC2)nc2c(F)cc(-c3nc(N[C@@H]4CCOC[C@H]4O)ncc3Cl)cc21  CDK6 (Homo sapiens (Human), UniProt Q00534)                  IC50        1470

# input Can you share its IC50? I mean this molecule: CC(C)n1c(CN2CC(C)(O)C2)nc2c(F)cc(-c3nc(N[C@@H]4CCOC[C@H]4O)ncc3Cl)cc21
# output 858

# input Now the same for CC(C)n1c(C(C)(C)O)nc2c(F)cc(-c3nc(N[C@@H]4CCOC[C@H]4O)ncc3Cl)cc21
# output 145

# input Now the same for Cc1nc2c(F)cc(-c3nc(N[C@@H]4CCN(S(C)(=O)=O)C[C@H]4O)ncc3F)cc2n1C1CNC1
# output 10000

# input Now the same for CC(C)n1c(CN)nc2c(F)cc(-c3nc(N[C@@H]4CCOC[C@H]4O)ncc3Cl)cc21
# output 605
